biological target: UniProtKB P11474; experiment: ERR reporter (luciferase) antagonist qHTS assay, ERR-HEK293; details: ERR-HEK293 Primary EC50, primary qHTS, 18 h, 15 concentrations; mean ± SD, triplicate
# if measured EC50 < 20 nM: YES  # else: NO

Asked: API: query returns whether the molecule falls strictly under 20 nM in EC50. Query: COc1cc([C@@H]2c3cc4c(cc3[C@@H](O[C@@H]3O[C@@H]5CO[C@@H](C)O[C@H]5[C@H](O)[C@H]3O)[C@H]3COC(=O)[C@H]23)OCO4)cc(OC)c1O [Etoposide]
Given back: NO

Asked: API: query returns whether the molecule falls strictly under 20 nM in EC50. Query: "COc1ccc2cc3[n+](cc2c1OC)CCc1cc2c(cc1-3)OCO2"
Given back: NO

Asked: API: query returns whether the molecule falls strictly under 20 nM in EC50. Query: "CC(C)C[C@H](NC(=O)[C@H](CCc1ccccc1)NC(=O)CN1CCOCC1)C(=O)N[C@@H](Cc1ccccc1)C(=O)N[C@@H](CC(C)C)C(=O)[C@@]1(C)CO1"
Given back: NO

Asked: API: query returns whether the molecule falls strictly under 20 nM in EC50. Query: "O=c1[nH]c(=O)n([C@H]2C[C@H](O)[C@@H](CO)O2)cc1C(F)(F)F"
Given back: NO

Asked: API: query returns whether the molecule falls strictly under 20 nM in EC50. Query: "C=C(C)[C@H]1Cc2c(ccc3c2O[C@@H]2COc4cc(OC)c(OC)cc4[C@@H]2C3=O)O1"
Given back: YES

Asked: API: query returns whether the molecule falls strictly under 20 nM in EC50. Query: "CC(C)(C)c1ccc(CSc2cnn(C(C)(C)C)c(=O)c2Cl)cc1"
Given back: YES

Asked: API: query returns whether the molecule falls strictly under 20 nM in EC50. Query: "CC(C)C[C@H](NC(=O)[C@H](Cc1ccccc1)NC(=O)c1cnccn1)B(O)O"
Given back: YES

---

molecular target: estrogen-related receptor alpha (ERRα) (Homo sapiens, UniProt P11474); assay: ERR reporter (luciferase) antagonist qHTS assay, ERR-HEK293; conditions: primary qHTS; relative to XCT790 = −100%, DMSO = 0%
Where a name gives a salt, the structure may show the parent alone.
metric name: ERR-HEK293 Primary Efficacy (%)
Provide the reading as a plain figure in %.

Asked: Fill in: ERR-HEK293 Primary Efficacy on estrogen-related receptor alpha (ERRα) (Homo sapiens, UniProt P11474), entry "Cc1nc(N)nc(N)c1-c1ccc(Cl)c(Cl)c1"
Given back: −90.9

Asked: Fill in: ERR-HEK293 Primary Efficacy on estrogen-related receptor alpha (ERRα) (Homo sapiens, UniProt P11474), entry "COc1ccc2cc3[n+](cc2c1OC)CCc1cc2c(cc1-3)OCO2"
Given back: −88.4

Asked: Fill in: ERR-HEK293 Primary Efficacy on estrogen-related receptor alpha (ERRα) (Homo sapiens, UniProt P11474), entry "CC[C@@]1(O)C(=O)OCc2c1cc1n(c2=O)Cc2c-1nc1ccccc1c2/C=N/OC(C)(C)C"
Given back: −117

Asked: Fill in: ERR-HEK293 Primary Efficacy on estrogen-related receptor alpha (ERRα) (Homo sapiens, UniProt P11474), entry CC[C@@]1(O)C(=O)OCc2c1cc1n(c2=O)Cc2cc3c(CN(C)C)c(O)ccc3nc2-1 [Topotecan hydrochloride]
Given back: −127

Asked: Fill in: ERR-HEK293 Primary Efficacy on estrogen-related receptor alpha (ERRα) (Homo sapiens, UniProt P11474), entry "C=C(C)[C@H]1Cc2c(ccc3c2O[C@@H]2COc4cc(OC)c(OC)cc4[C@@H]2C3=O)O1"
Given back: −92.4

---

molecular target: UniProt:P11474
metric name: ERR-HEK293 Follow-Up Efficacy
Your answer should be a number followed by the unit of measure.

Below, 3 compounds whose answers are already recorded.
• CC(C)(C)c1ccc(CSc2cnn(C(C)(C)C)c(=O)c2Cl)cc1 [Pyridaben] = −94.1 ± 13.4%
• CO/C=C(/C(=O)OC)c1ccccc1COc1cccc(C(F)(F)F)n1 [Picoxystrobin] = −86.7 ± 15.8%
• CO/N=C(/C(=O)OC)c1ccccc1COc1ccccc1C [Kresoxim-methyl] = −102 ± 1.40%

Switching to the query record.
Asked: Fill in: ERR-HEK293 Follow-Up Efficacy on UniProt:P11474, entry COC(=O)N(OC)c1ccccc1COc1ccn(-c2ccc(Cl)cc2)n1 [Pyraclostrobin]
Given back: −80.0 ± 5.67%

---

Biological target: estrogen-related receptor alpha (ERRα) (Homo sapiens)
Sequence (P11474 1-423): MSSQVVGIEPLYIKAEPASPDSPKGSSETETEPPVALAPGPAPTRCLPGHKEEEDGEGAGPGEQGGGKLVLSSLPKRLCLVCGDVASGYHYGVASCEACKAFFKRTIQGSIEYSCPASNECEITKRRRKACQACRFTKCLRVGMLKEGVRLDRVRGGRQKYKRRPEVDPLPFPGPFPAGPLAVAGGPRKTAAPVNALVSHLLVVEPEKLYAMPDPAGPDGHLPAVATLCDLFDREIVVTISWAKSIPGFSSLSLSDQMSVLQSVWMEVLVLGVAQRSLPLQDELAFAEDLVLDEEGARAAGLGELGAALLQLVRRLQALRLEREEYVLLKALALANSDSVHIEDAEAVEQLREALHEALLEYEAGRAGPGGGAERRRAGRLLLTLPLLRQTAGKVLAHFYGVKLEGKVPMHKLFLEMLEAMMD
Assay: ERR reporter (luciferase) antagonist qHTS assay, ERR-HEK293
Details: ERR-HEK293 Follow-Up EC50, follow-up (confirmation) screen; mean ± SD, triplicate
Structures can show the parent of a compound that is named as a salt.
metric name: pEC50
Please note pEC50 is a logarithmic value: minus log10 of concentration in mol/L. Answer with that number alone.

Below, 5 compounds whose answers are already recorded.
• CO/N=C(/C(=O)OC)c1ccccc1COc1ccccc1C = 5.08
• CC(C)C[C@H](NC(=O)[C@H](CCc1ccccc1)NC(=O)CN1CCOCC1)C(=O)N[C@@H](Cc1ccccc1)C(=O)N[C@@H](CC(C)C)C(=O)[C@@]1(C)CO1 = 7.21
• C[C@@H]1CC[C@H]2[C@@H](C)C(=O)O[C@@H]3O[C@@]4(C)CC[C@@H]1[C@]32OO4 = 5.61
• COc1cc([C@@H]2c3cc4c(cc3[C@@H](O[C@@H]3O[C@@H]5CO[C@@H](C)O[C@H]5[C@H](O)[C@H]3O)[C@H]3COC(=O)[C@H]23)OCO4)cc(OC)c1O [Etoposide] = 5.09
• Cc1nn(C)c(Oc2ccccc2)c1C=NOCc1ccc(C(=O)OC(C)(C)C)cc1 [Fenpyroximate] = 8.16

Asked: Return pEC50 (reported value) for this compound: "C=C(C)[C@H]1Cc2c(ccc3c2O[C@@H]2COc4cc(OC)c(OC)cc4[C@@H]2C3=O)O1"
Given back: 7.80

Asked: Return pEC50 (reported value) for this compound: "COC(=O)N(OC)c1ccccc1COc1ccn(-c2ccc(Cl)cc2)n1"
Given back: 6.12

Asked: Return pEC50 (reported value) for this compound: CC[C@@]1(O)C(=O)OCc2c1cc1n(c2=O)Cc2cc3c(CN(C)C)c(O)ccc3nc2-1 [Topotecan hydrochloride]
Given back: 6.14

Asked: Return pEC50 (reported value) for this compound: "O=c1[nH]c(=O)n([C@H]2C[C@H](O)[C@@H](CO)O2)cc1C(F)(F)F"
Given back: 5.76

Asked: Return pEC50 (reported value) for this compound: "Cc1nc(N)nc(N)c1-c1ccc(Cl)c(Cl)c1"
Given back: 5.80

Asked: Return pEC50 (reported value) for this compound: "COc1ccc2cc3[n+](cc2c1OC)CCc1cc2c(cc1-3)OCO2"
Given back: 5.48

Asked: Return pEC50 (reported value) for this compound: "CC(C)C[C@H](NC(=O)[C@H](Cc1ccccc1)NC(=O)c1cnccn1)B(O)O"
Given back: 7.78

Asked: Return pEC50 (reported value) for this compound: "CC(C)(C)c1ccc(CSc2cnn(C(C)(C)C)c(=O)c2Cl)cc1"
Given back: 7.61

Asked: Return pEC50 (reported value) for this compound: "CO/C=C(/C(=O)OC)c1ccccc1COc1cccc(C(F)(F)F)n1"
Given back: 5.47

---

tested on: PGC/ERR reporter HEK293 cells; assay: CellTiter-Fluor cell viability assay multiplexed with PGC/ERR reporter assay; format: cell-based; details: Homo sapiens, HEK293, follow-up screen, read-out: PGC/ERR-HEK293 Follow-Up Viability EC50 (converted)
metric name: EC50 (nM)
Provide the reading as a plain figure in nM.

Asked: Fill in: EC50 on PGC/ERR reporter HEK293 cells, entry COc1ccc2cc3[n+](cc2c1OC)CCc1cc2c(cc1-3)OCO2 [Berberine]
Given back: 17300

Asked: Fill in: EC50 on PGC/ERR reporter HEK293 cells, entry CC(C)C[C@H](NC(=O)[C@H](Cc1ccccc1)NC(=O)c1cnccn1)B(O)O [Bortezomib]
Given back: 64.3

Asked: Fill in: EC50 on PGC/ERR reporter HEK293 cells, entry CC(C)C[C@H](NC(=O)[C@H](CCc1ccccc1)NC(=O)CN1CCOCC1)C(=O)N[C@@H](Cc1ccccc1)C(=O)N[C@@H](CC(C)C)C(=O)[C@@]1(C)CO1 [Carfilzomib]
Given back: 471

Asked: Fill in: EC50 on PGC/ERR reporter HEK293 cells, entry C=C(C)[C@H]1Cc2c(ccc3c2O[C@@H]2COc4cc(OC)c(OC)cc4[C@@H]2C3=O)O1 [Rotenone]
Given back: 2970

Origin of the recorded values: paper PMC6429183
